target-or-test-system: mMC3R (Mus musculus, UniProt P33033)
Sequence (P33033 whole entry): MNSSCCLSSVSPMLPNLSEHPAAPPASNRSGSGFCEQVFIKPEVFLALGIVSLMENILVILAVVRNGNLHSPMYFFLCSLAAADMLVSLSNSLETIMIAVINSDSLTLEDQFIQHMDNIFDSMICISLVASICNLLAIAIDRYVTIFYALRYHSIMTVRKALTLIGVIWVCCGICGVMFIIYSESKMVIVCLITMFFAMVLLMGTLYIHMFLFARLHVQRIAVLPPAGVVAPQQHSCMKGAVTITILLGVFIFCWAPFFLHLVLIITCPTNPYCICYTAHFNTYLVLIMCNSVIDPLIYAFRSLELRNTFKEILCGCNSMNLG
assay-name: AlphaScreen cAMP agonist assay, HEK293 cells stably expressing mMC3R
reported-endpoint: EC50 (µM)

q: Sample CC(C)CC1CNC(=N)N1CC1CCCN1CC(Cc1ccc(O)cc1)N1CC(C(C)O)N(CC2CCC(C(C)(C)C)CC2)C1=N (stereo not shown) [Compound 2718.057] — what was its EC50?
a: 11

q: Would you kindly repeat that for CCC[C@@H]1CN([C@H](CC2CCCCC2)CN2CCC[C@@H]2CN2C(=N)NC[C@H]2C(C)C)C(=N)N1CC1CCC(C(C)(C)C)CC1 (stereo partly shown) [Compound 2718.052] ?
a: 2.6

q: What would you report for CCC[C@@H]1CN([C@H](CC2CCCCC2)CN2CCC[C@H]2CN2C(=N)NC[C@@H]2C(C)C)C(=N)N1CC1CCC(C(C)(C)C)CC1 (stereo partly shown) [Compound 2718.053] ?
a: 2.4

1. CC(C)[C@@H]1CNC(=N)N1C[C@@H]1CCCN1C[C@@H](CC1CCCCC1)N1CCN(CC2CCC(C(C)(C)C)CC2)C1=N (stereo partly shown) [Compound 2718.027]
2. CC(C)CC1CNC(=N)N1CC1CCCN1CC(C1CCCCC1)N1CC(C(C)O)N(CC2CCC(C(C)(C)C)CC2)C1=N (stereo not shown) [Compound 2718.059]
3. CC(C)C[C@@H]1CNC(=N)N1C[C@H]1CCCN1C[C@H](Cc1ccccc1)N1C[C@@H]([C@H](C)O)N(CC2CCC(C(C)(C)C)CC2)C1=N (stereo partly shown) [Compound 2718.038]
q: Order the records so the highest EC50 appears first and the lowest last. Use the labels to give the requested order.
a: 2, 3, 1

----------
target-or-test-system: mMC4R (Mus musculus, UniProt P56450)
Sequence (P56450 whole entry): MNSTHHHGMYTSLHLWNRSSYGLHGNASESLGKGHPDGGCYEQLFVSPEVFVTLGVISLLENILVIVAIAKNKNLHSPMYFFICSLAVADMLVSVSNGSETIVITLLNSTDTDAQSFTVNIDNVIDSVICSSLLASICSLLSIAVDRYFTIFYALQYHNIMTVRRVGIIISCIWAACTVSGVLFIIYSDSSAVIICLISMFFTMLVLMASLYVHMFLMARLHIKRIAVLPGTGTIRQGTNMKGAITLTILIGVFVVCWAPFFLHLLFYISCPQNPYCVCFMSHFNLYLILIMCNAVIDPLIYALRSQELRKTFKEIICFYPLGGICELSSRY
assay-name: AlphaScreen cAMP agonist assay, HEK293 cells stably expressing mMC4R
condition: at 1 mM; not enough stimulation to determine EC50
reported-endpoint: mMC4R percent maximal stimulatory response (compared to NDP-MSH) (% @ 1 mM)

I. CC(C)C[C@H]1CNC(=N)N1C[C@@H]1CCCN1C[C@@H](Cc1ccccc1)N1C[C@H]([C@@H](C)O)N(CC2CCC(C(C)(C)C)CC2)C1=N (stereo partly drawn)
II. CCC[C@@H]1CN(CCN2CCC[C@H]2CN2C(=N)NC[C@H]2C(C)C)C(=N)N1CC1CCC(C(C)(C)C)CC1 (stereo partly drawn)
q: Identify the entry with the larger mMC4R percent maximal stimulatory response (compared to NDP-MSH). Options: I and II Selection: enter the item's label.
a: I
(I: 55 % @ 1 mM, II: 35 % @ 1 mM)

----------
target-or-test-system: mMC3R (Mus musculus)
assay-name: AlphaScreen cAMP agonist assay, HEK293 cells stably expressing mMC3R
condition: at 1 mM; not enough stimulation to determine EC50
reported-endpoint: mMC3R percent maximal stimulatory response (compared to NDP-MSH) (% @ 1 mM)

q: Entry CC(C)C[C@@H]1CNC(=N)N1C[C@@H]1CCCN1CCN1C[C@@H]([C@H](C)O)N(CC2CCC(C(C)(C)C)CC2)C1=N (stereo partly drawn) : reported mMC3R percent maximal stimulatory response (compared to NDP-MSH) = ?
a: 30

q: Same lookup for CCC[C@H]1CN([C@@H](CC2CCCCC2)CN2CCC[C@@H]2CN2C(=N)NC[C@@H]2C(C)C)C(=N)N1CC1CCC(C(C)(C)C)CC1 (stereo partly drawn) , please.
a: 55

q: Also check CC(C)C[C@H]1CNC(=N)N1C[C@H]1CCCN1C[C@@H](Cc1ccccc1)N1C[C@H]([C@@H](C)O)N(CC2CCC(C(C)(C)C)CC2)C1=N (stereo partly drawn)
a: 55

q: Record: CC(C)CC1CNC(=N)N1CC1CCCN1CC(C)N1CC(C(C)O)N(CC2CCC(C(C)(C)C)CC2)C1=N (stereo not drawn)
a: 20

q: Subsequent entry: CCC[C@@H]1CN(CCN2CCC[C@H]2CN2C(=N)NC[C@H]2C(C)C)C(=N)N1CC1CCC(C(C)(C)C)CC1 (stereo partly drawn)
a: 35

q: Please answer likewise for CC(C)C[C@@H]1CNC(=N)N1C[C@@H]1CCCN1C[C@@H](Cc1ccccc1)N1C[C@H]([C@@H](C)O)N(CC2CCC(C(C)(C)C)CC2)C1=N (stereo partly drawn)
a: 50

q: Do the same for CC(O)C1CNC(=N)N1CC1CCC(C(C)(C)C)CC1 (stereo not drawn) please
a: 70

q: Now the molecule CC(C)C[C@@H]1CNC(=N)N1C[C@@H]1CCCN1C[C@H](Cc1ccccc1)N1C[C@@H]([C@H](C)O)N(CC2CCC(C(C)(C)C)CC2)C1=N (stereo partly drawn)
a: 55

q: Subsequent entry: CC(C)C[C@@H]1CNC(=N)N1C[C@@H]1CCCN1C[C@H](Cc1ccccc1)N1C[C@H]([C@@H](C)O)N(CC2CCC(C(C)(C)C)CC2)C1=N (stereo partly drawn)
a: 55

q: Also, CC(C)C[C@H]1CNC(=N)N1C[C@@H]1CCCN1C[C@H](Cc1ccccc1)N1C[C@H]([C@@H](C)O)N(CC2CCC(C(C)(C)C)CC2)C1=N (stereo partly drawn) please.
a: 65

P. CC(C)C[C@H]1CNC(=N)N1C[C@@H]1CCCN1C[C@H](Cc1ccccc1)N1C[C@@H]([C@H](C)O)N(CC2CCC(C(C)(C)C)CC2)C1=N (stereo partly drawn)
Q. CCC[C@@H]1CN([C@H](CC2CCCCC2)CN2CCC[C@H]2CN2C(=N)NC[C@H]2C(C)C)C(=N)N1CC
q: Kindly identify the item with the lower mMC3R percent maximal stimulatory response (compared to NDP-MSH) figure among these two: P and Q Give the label under which the chosen entry appears.
a: Q

----------
target-or-test-system: mMC5R (Mus musculus)
Sequence (P41149 whole entry): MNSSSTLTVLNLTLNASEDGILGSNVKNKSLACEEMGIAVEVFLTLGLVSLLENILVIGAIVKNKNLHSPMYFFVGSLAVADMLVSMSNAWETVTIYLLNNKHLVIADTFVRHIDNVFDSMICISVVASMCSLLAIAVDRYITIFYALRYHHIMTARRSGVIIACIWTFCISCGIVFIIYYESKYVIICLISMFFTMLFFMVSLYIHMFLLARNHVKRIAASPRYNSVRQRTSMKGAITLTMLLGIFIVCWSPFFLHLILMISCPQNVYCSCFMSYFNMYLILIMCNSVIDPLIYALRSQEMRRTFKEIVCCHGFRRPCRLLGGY
assay-name: AlphaScreen cAMP agonist assay, HEK293 cells stably expressing mMC5R
condition: relative to 2718.002
reported-endpoint: fold decreased mMC5R agonist potency (fold)

q: Value lookup for fold decreased mMC5R agonist potency; key = CC(C)C[C@H]1CNC(=N)N1C[C@H]1CCCN1C[C@H](CC1CCCCC1)N1C[C@H]([C@@H](C)O)N(CC2CCC(C(C)(C)C)CC2)C1=N (stereo partly drawn)
a: 10

A. CCCCC(CN1CCCC1CN1C(=N)NCC1CC(C)C)N1CC(C(C)O)N(CC2CCC(C(C)(C)C)CC2)C1=N (stereo not drawn)
B. CC(C)CC1CNC(=N)N1CC1CCCN1CC(C1CCCCC1)N1CC(C(C)O)N(CC2CCC(C(C)(C)C)CC2)C1=N (stereo not drawn)
q: Which entry shows the lesser value of fold decreased mMC5R agonist potency here, A or B ? Refer to your chosen entry by its label in the reply.
a: A
(A: 4 fold, B: 20 fold)

----------
target-or-test-system: UniProtKB P56450
assay-name: AlphaScreen cAMP agonist assay, HEK293 cells stably expressing mMC4R
pEC50: −log10 of the molar value.
reported-endpoint: pEC50

q: Dear colleague, I am looking for the recorded pEC50 of the following compound: C[C@H](O)[C@@H]1CN([C@H](CC2CCCCC2)CN2CCC[C@H]2CN2CCNC2=N)C(=N)N1CC1CCC(C(C)(C)C)CC1 (stereo partly drawn)
a: 5.74

q: Now consider CCCC1CN(C(CC2CCCCC2)CN2CCCC2CN2C(=N)NCC2C(C)C)C(=N)N1CC1CCC(C(C)(C)C)CC1 (stereo not drawn) .
a: 5.60

----------
target-or-test-system: mMC4R (Mus musculus, UniProt P56450)
condition: antagonist, Schild analysis with agonist NDP-MSH; mean ± SEM
reported-endpoint: mMC4R pA2

q: Looking for the measured mMC4R pA2 of CCCC1CN(C(CC2CCCCC2)CN2CCCC2CN2C(=N)NCC2C(C)C)C(=N)N1CC1CCC(C(C)(C)C)CC1 (centres unmarked) [Compound 2718.003] , can you help?
a: 5.9

q: Would you kindly repeat that for C[C@H](O)[C@@H]1CN([C@H](Cc2ccccc2)CN2CCC[C@H]2CN2CCNC2=N)C(=N)N1CC1CCC(C(C)(C)C)CC1 (some centres unmarked) [Compound 2718.024] ?
a: 6.3

q: Same lookup for CC(C)CC1CNC(=N)N1CC1CCCN1CC(Cc1ccccc1)N1CC(C(C)O)N(CC2CCC(C(C)(C)C)CC2)C1=N (centres unmarked) [Compound 2718.001] , please.
a: 6.0

q: Subsequent entry: CC(C)C[C@@H]1CNC(=N)N1C[C@@H]1CCCN1C[C@@H](CC1CCCCC1)N1CCN(CC2CCC(C(C)(C)C)CC2)C1=N (some centres unmarked) [Compound 2718.025]
a: 6.1

q: How about C[C@H](O)[C@@H]1CN([C@H](CC2CCCCC2)CN2CCC[C@H]2CN2CCNC2=N)C(=N)N1CC1CCC(C(C)(C)C)CC1 (some centres unmarked) [Compound 2718.026] ?
a: 6.2

q: Consider next the compound CCC[C@@H]1CN([C@H](CC2CCCCC2)CN2CCC[C@H]2CN2CCNC2=N)C(=N)N1CC1CCC(C(C)(C)C)CC1 (some centres unmarked) [Compound 2718.029] in the same way.
a: 5.8

q: Now try CC(C)C[C@@H]1CNC(=N)N1C[C@@H]1CCCN1C[C@@H](Cc1ccccc1)N1CCN(CC2CCC(C(C)(C)C)CC2)C1=N (some centres unmarked) [Compound 2718.022] .
a: 6.1

q: Now try CC(C)CC1CNC(=N)N1CC1CCCN1CC(CC1CCCCC1)N1CC(C(C)O)N(CC2CCC(C(C)(C)C)CC2)C1=N (centres unmarked) [Compound 2718.002] .
a: 6.2

Entry source: paper PMC10299128
